assay: Food effect on relative bioavailability of 480 mg FDV, two-period crossover (Part 2); assay type: in vivo, human; conditions: male, human, plasma, oral, 480 mg, FDV 480 mg/fed; mean (CV%), N = 7; read-out: t½ (converted)
ENDPOINT: half-life (h)
Dear colleague, please return just the value in h, with no unit written.

Name the recorded half-life for `C=C[C@@H]1C[C@]1(NC(=O)[C@@H]1C[C@@H](Oc2cc(-c3csc(NC(=O)C(C)C)n3)nc3c(Br)c(OC)ccc23)CN1C(=O)[C@@H](NC(=O)OC1CCCC1)C(C)(C)C)C(=O)O` . 18

----------
experiment: Single ascending dose plasma pharmacokinetics (Part 1); format: in vivo, human; conditions: male, human, plasma, oral; range over single doses of 4–1,200 mg; read-out: geometric mean (gMean) Cmax
ENDPOINT: Cmax

Name the recorded Cmax for `C=C[C@@H]1C[C@]1(NC(=O)[C@@H]1C[C@@H](Oc2cc(-c3csc(NC(=O)C(C)C)n3)nc3c(Br)c(OC)ccc23)CN1C(=O)[C@@H](NC(=O)OC1CCCC1)C(C)(C)C)C(=O)O` . 3.57 to 16500 ng/mL
